Record form. Attribute: EC50. Fill in for each entry.
System: HEK293T cells carrying the ATF4 luciferase reporter
Test: ATF4-Luc assay (in vitro model of VWMD)
Format: cell-based
Details: Homo sapiens, HEK-293T, 1 μg/mL tunicamycin, 7 hours, One Glo luminescence

Sample answers from the record:
[
  {
    "MOLECULE": "O=C(COc1ccc(Cl)c(F)c1)NC12CC(c3nnc(Oc4cccc(F)c4)o3)(C1)C2",
    "TGT": "HEK293T cells carrying the ATF4 luciferase reporter",
    "OBSERVABLE": "EC50",
    "REPORTED_RESULT": "50 to 250 nM"
  },
  {
    "MOLECULE": "O=C(COc1ccc(Cl)c(F)c1)NC12CC(c3nnc(COc4cncc(C(F)(F)F)c4)o3)(C1)C2",
    "TGT": "HEK293T cells carrying the ATF4 luciferase reporter",
    "OBSERVABLE": "EC50",
    "REPORTED_RESULT": "50 to 250 nM"
  },
  {
    "MOLECULE": "COCc1nnc(C23CCC(NC(=O)COc4ccc(Cl)c(F)c4)(CC2)CC3O)o1 (stereo not shown)",
    "TGT": "HEK293T cells carrying the ATF4 luciferase reporter",
    "OBSERVABLE": "EC50",
    "REPORTED_RESULT": "250 to 1000 nM"
  },
  {
    "MOLECULE": "Cc1ccccc1Oc1nnc(C23CC(NC(=O)COc4ccc(Cl)c(F)c4)(C2)C3)o1",
    "TGT": "HEK293T cells carrying the ATF4 luciferase reporter",
    "OBSERVABLE": "EC50",
    "REPORTED_RESULT": "250 to 1000 nM"
  },
  {
    "MOLECULE": "Cc1cc(OCc2nnc(C34CC(NC(=O)COc5ccc(Cl)c(F)c5)(C3)C4)o2)cnc1C#N",
    "TGT": "HEK293T cells carrying the ATF4 luciferase reporter",
    "OBSERVABLE": "EC50",
    "REPORTED_RESULT": "1000 to 2000 nM"
  }
]

For every item below, please supply its EC50.
1. O=C(COc1cccc(Cl)c1)NC12CC(c3nc(COc4ccc(Cl)cc4)no3)(C1)C2
2. COc1ccccc1Oc1nnc(C23CC(NC(=O)COc4ccc(Cl)c(F)c4)(C2)C3)o1
3. O=C(COc1ccc(Cl)c(F)c1)NC12CC(c3nnc(Oc4cccc(C(F)(F)F)c4)o3)(C1)C2

// result
1: 250 to 1000 nM; 2: > 2000 nM; 3: < 50 nM

For every item below, please supply its EC50.
1. O=C(COc1ccc2c(c1)OC(F)(F)O2)NC12CC(c3nnc(COc4ccc(Cl)c(F)c4)o3)(C1)C2
2. O=C(COc1ccc(Cl)c(F)c1)NC12CC(c3nnc(COc4cnc5cc[nH]c5c4)o3)(C1)C2
3. O=C(COc1ccc(Cl)c(F)c1)NC12CC(c3nnc(Oc4cncc(C(F)(F)F)c4)o3)(C1)C2

// result
< 50 nM
1000 to 2000 nM
50 to 250 nM

For every item below, please supply its EC50.
1. N#Cc1cncc(OCc2nnc(C34CC(NC(=O)COc5ccc(Cl)c(F)c5)(C3)C4)o2)c1
2. COc1ccc(Oc2nnc(C34CC(NC(=O)COc5ccc(Cl)c(F)c5)(C3)C4)o2)cc1
3. O=C(COc1ccc(Cl)c(F)c1)NC12CC(c3nnc(Oc4ccc(F)cc4)o3)(C1)C2
4. CCc1nc(C)ccc1OCc1nnc(C23CC(NC(=O)COc4ccc(Cl)c(F)c4)(C2)C3)o1

// result
["> 2000 nM", "250 to 1000 nM", "< 50 nM", "> 2000 nM"]

// query Tell me the measured EC50 of Cc1cc(Oc2nnc(C34CC(NC(=O)COc5ccc(Cl)c(F)c5)(C3)C4)o2)cnc1C#N , please.
// result 250 to 1000 nM

====

System: HEK293T cells carrying the ATF4 luciferase reporter
Test: ATF4-Luc assay (in vitro model of VWMD)
Type: cell-based
Conditions: Homo sapiens, HEK-293T, 1 μg/mL tunicamycin, 7 hours, One Glo luminescence
Record form. Attribute: EC50. Fill in for each entry.

Sample answers from the record:
[
  {
    "COMPOUND": "O=C(COc1ccc(Cl)cc1)NC12CC(c3nc(COc4ccc(Cl)cc4)no3)(C1)C2",
    "EC50": "< 50 nM"
  },
  {
    "COMPOUND": "O=C(COc1ccc(Cl)c(F)c1)NC12CC(c3nnc(Oc4ccccc4F)o3)(C1)C2",
    "EC50": "250 to 1000 nM"
  },
  {
    "COMPOUND": "O=C(COc1ccc(C(F)(F)F)nc1)NC12CC(c3nc(COc4ccc(Cl)cc4)no3)(C1)C2",
    "EC50": "250 to 1000 nM"
  }
]

For every item below, please supply its EC50.
1. COc1ccc(Oc2nnc(C34CC(NC(=O)COc5ccc(Cl)c(F)c5)(C3)C4)o2)cn1
2. O=C(COc1cccc(F)c1)NC12CC(c3nc(COc4ccc(Cl)cc4)no3)(C1)C2
3. O=C(COc1ccc(Cl)c(F)c1)NC12CCC(c3nnc(Oc4ccc(Cl)c(F)c4)o3)(CC1)C(O)C2 (stereo not shown)
4. CC(C)c1ccc(OCc2nnc(C34CC(NC(=O)COc5ccc(Cl)c(F)c5)(C3)C4)o2)cn1
5. Cc1ccc(Oc2nnc(C34CC(NC(=O)COc5ccc(Cl)c(F)c5)(C3)C4)o2)cc1C
6. N#Cc1cccc(Oc2nnc(C34CC(NC(=O)COc5ccc(Cl)c(F)c5)(C3)C4)o2)c1
7. Cc1cc(OCC(=O)NC23CC(c4nc(COc5ccc(Cl)cc5)no4)(C2)C3)ccc1Cl

// result
50 to 250 nM
250 to 1000 nM
< 50 nM
> 2000 nM
50 to 250 nM
50 to 250 nM
250 to 1000 nM

For every item below, please supply its EC50.
1. O=C(COc1ccc(Cl)c(F)c1)NC12CC(c3nc(COc4ccc(C(F)(F)F)nc4)c[nH]3)(C1)C2
2. O=C(COc1ccc(Cl)cc1)NC12CC(c3nnc(COc4ccc(Cl)cc4)o3)(C1)C2

// result
1: > 2000 nM; 2: 50 to 250 nM

For every item below, please supply its EC50.
1. Cc1cccc(OCC(=O)NC23CC(c4nc(COc5ccc(Cl)cc5)no4)(C2)C3)c1
2. O=C(COc1ccc(Cl)c(F)c1)NC12CC(c3nnc(COc4cncc(Cl)c4)o3)(C1)C2

// result
1. 1000 to 2000 nM
2. 50 to 250 nM

For every item below, please supply its EC50.
1. COCc1nnc([C@]23CC[C@](NC(=O)COc4ccc(Cl)c(F)c4)(CC2)CC3=O)o1
2. Cc1cc(COCC(=O)NC23CC(c4nc(COc5ccc(Cl)cc5)no4)(C2)C3)no1

// result
1: 250 to 1000 nM; 2: > 2000 nM

====

Test system: HEK293T cells carrying the ATF4 luciferase reporter
Assay: ATF4-Luc assay (in vitro model of VWMD)
Format: cell-based
Details: Homo sapiens, HEK-293T, 1 μg/mL tunicamycin, 7 hours, One Glo luminescence
pEC50: −log10 of the molar value.
Record form. Attribute: pEC50. Fill in for each entry.

Sample answers from the record:
[
  {
    "COMPOUND": "N#Cc1ccc(OCc2nnc(C34CC(NC(=O)COc5ccc(Cl)c(F)c5)(C3)C4)o2)cn1",
    "pEC50": "6.00 to 6.60"
  },
  {
    "COMPOUND": "O=C(COc1ccc(Cl)c(F)c1)NC12CC(c3nc(COc4ccc(C5CC5)nc4)no3)(C1)C2",
    "pEC50": "6.00 to 6.60"
  }
]

For every item below, please supply its pEC50.
1. O=C(COc1ccc(Cl)c(F)c1)NC12CC(c3nc(COc4ccc(C(F)(F)F)nc4)no3)(C1)C2
2. O=C(COc1ccc(Cl)c(F)c1)NC12CC(c3nnc(COc4cnc5ccoc5c4)o3)(C1)C2
3. O=C(COc1ccc(Cl)c(F)c1)NC12CCC(c3nc(COc4ccnc(C(F)(F)F)c4)no3)(CC1)C(O)C2 (stereo not shown)
4. Cc1ccc(OCc2nnc(C34CC(NC(=O)COc5ccc(Cl)c(F)c5)(C3)C4)o2)cn1
5. COc1ccc(OCc2nnc(C34CC(NC(=O)COc5ccc(Cl)c(F)c5)(C3)C4)o2)c(C)n1

// result
6.60 to 7.30
5.70 to 6.00
6.60 to 7.30
6.00 to 6.60
5.70 to 6.00

====

System: HEK293T cells carrying the ATF4 luciferase reporter
Assay: ATF4-Luc assay (in vitro model of VWMD)
Assay type: cell-based
Details: Homo sapiens, HEK-293T, 1 μg/mL tunicamycin, 7 hours, One Glo luminescence
OBSERVABLE: EC50

Sample answers from the record:
[
  {
    "COMPOUND": "Cc1cccc(Oc2nnc(C34CC(NC(=O)COc5ccc(Cl)c(F)c5)(C3)C4)o2)c1 [Compound 135]",
    "EC50": "50 to 250 nM"
  },
  {
    "COMPOUND": "O=C(COc1ccc(Cl)c(F)c1)NC12CC(c3nc(COc4ccnc(C(F)(F)F)c4)no3)(C1)C2 [Compound 160]",
    "EC50": "50 to 250 nM"
  },
  {
    "COMPOUND": "COc1ncc(OCc2nnc(C34CC(NC(=O)COc5ccc(Cl)c(F)c5)(C3)C4)o2)cc1C [Compound 155]",
    "EC50": "250 to 1000 nM"
  },
  {
    "COMPOUND": "O=C(COc1ccc(Cl)c(Cl)c1)NC12CC(c3nc(COc4ccc(Cl)cc4)no3)(C1)C2 [Compound 105]",
    "EC50": "< 50 nM"
  },
  {
    "COMPOUND": "O=C(COc1ccc(Cl)c(F)c1)NC12CC(c3nnc(COc4cncc(F)c4)o3)(C1)C2 [Compound 140]",
    "EC50": "50 to 250 nM"
  }
]

For every item below, please supply its EC50.
1. O=C(COc1ccc(Cl)c(F)c1)NC12CC(c3nnc(COc4ccc(Cl)cc4)[nH]3)(C1)C2 [Compound 132]
2. Cc1ncc(OCc2nnc(C34CC(NC(=O)COc5ccc(Cl)c(F)c5)(C3)C4)o2)cc1Cl [Compound 145]

// result
1: < 50 nM; 2: 50 to 250 nM
